Measured on: ALK (Homo sapiens, UniProt Q9UM73)
Construct: host or cells: baculovirus expression system
Sequence (Q9UM73 19-1620): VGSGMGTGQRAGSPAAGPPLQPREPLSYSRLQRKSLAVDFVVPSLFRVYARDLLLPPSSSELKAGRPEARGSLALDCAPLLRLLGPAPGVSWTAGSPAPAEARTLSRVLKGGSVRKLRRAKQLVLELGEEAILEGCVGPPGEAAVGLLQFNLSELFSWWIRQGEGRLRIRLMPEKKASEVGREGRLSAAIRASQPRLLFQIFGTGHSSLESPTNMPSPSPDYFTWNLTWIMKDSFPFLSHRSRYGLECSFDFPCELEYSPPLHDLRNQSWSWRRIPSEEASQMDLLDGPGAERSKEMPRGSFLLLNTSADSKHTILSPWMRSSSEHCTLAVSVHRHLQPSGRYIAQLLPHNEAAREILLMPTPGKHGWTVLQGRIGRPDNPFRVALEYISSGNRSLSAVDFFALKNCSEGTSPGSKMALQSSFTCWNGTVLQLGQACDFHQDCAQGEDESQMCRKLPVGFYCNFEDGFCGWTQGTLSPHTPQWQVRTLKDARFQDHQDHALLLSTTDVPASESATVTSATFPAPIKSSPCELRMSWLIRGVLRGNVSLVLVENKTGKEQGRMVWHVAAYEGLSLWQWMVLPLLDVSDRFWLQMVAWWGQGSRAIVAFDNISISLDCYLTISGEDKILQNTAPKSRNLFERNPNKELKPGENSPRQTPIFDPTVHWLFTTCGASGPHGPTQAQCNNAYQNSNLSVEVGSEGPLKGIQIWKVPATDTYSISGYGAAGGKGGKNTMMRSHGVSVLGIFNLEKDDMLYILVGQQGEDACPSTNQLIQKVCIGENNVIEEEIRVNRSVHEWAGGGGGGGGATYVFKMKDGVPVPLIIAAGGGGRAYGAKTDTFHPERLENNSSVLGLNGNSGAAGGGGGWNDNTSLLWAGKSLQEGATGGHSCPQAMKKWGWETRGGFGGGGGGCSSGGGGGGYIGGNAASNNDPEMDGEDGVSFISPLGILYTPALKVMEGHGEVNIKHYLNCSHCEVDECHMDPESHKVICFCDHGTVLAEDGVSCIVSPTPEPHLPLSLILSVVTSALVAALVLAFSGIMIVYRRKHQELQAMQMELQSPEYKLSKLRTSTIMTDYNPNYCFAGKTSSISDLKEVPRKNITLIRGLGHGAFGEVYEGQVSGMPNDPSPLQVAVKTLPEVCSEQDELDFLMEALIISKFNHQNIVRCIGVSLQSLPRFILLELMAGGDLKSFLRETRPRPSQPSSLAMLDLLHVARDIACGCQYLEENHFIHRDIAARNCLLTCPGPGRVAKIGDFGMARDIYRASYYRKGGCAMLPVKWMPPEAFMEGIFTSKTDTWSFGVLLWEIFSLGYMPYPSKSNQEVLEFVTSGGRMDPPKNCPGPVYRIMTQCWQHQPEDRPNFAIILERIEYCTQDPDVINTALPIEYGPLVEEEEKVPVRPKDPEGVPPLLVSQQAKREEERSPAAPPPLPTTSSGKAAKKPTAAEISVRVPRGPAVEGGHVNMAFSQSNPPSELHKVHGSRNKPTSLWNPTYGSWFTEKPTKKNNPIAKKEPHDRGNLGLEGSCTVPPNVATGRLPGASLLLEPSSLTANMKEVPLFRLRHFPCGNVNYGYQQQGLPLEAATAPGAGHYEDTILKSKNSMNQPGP
Test protocol: ALK Kinase Assay (ELISA/TRF, PLC-γ substrate)
Type: biochemical
Test context: ALK kinase inhibition, 1 μM ATP; read-out: ALK Potency
pIC50: −log10 of the molar value.
Entries and their pIC50 values follow.

// solved cases for pIC50 follow
COc1ccc(-c2ccc3cnc(Nc4cccc(NC(=O)[C@@H](C)OC)c4)nn23)cn1 | 6.00 to 7.00
CC(C)c1nc2ccc(Nc3ncc4ccc(-c5cccc(S(=O)(=O)NC(C)(C)C)c5)n4n3)cc2[nH]1 | 5.00 to 6.00
COc1cc(N2CCC(N3CCN(C)CC3)CC2)ccc1Nc1ncc2ccc(-c3ccccc3S(=O)(=O)N(C)C)n2n1 | > 7.00
COc1cc([C@@H]2CCN(CC(N)=O)C[C@@H]2O)ccc1Nc1ncc2ccc(-c3ccccc3N(C)S(C)(=O)=O)n2n1 (racemic) | > 7.00
N#CCCn1cccc1-c1ccc2cnc(Nc3cccc(N4CCCC4=O)c3)nn12 | 5.00 to 6.00
COc1cc2c(cc1Nc1ncc3ccc(-c4cccc5c4OCC5)n3n1)CCCC(N1CCN(CCO)CC1)C2 (stereo not drawn) | > 7.00
COc1cc2c(cc1Nc1ncc3ccc(-c4cccc5c4OCC5)n3n1)CCNCC2 | > 7.00
COc1cc(C2(O)CCN(C(=O)OC(C)(C)C)CC2)ccc1Nc1ncc2ccc(-c3ccccc3N(C)S(C)(=O)=O)n2n1 | 6.00 to 7.00

Prompt line: For OCCN1CCN(c2ccc(Nc3ncc4ccc(-c5cccc(Cl)c5)n4n3)cc2)CC1 , write its pIC50.
Response line: > 7.00

Prompt line: Give pIC50 for the following molecule: CN1CCc2cc(Nc3ncc4ccc(-c5cccc(S(=O)(=O)NC(C)(C)C)c5)n4n3)ccc2C1
Response line: > 7.00

Prompt line: Return the recorded pIC50 value; entry: COc1ccccc1-c1ccc2cnc(Nc3ccc(C4CCN(C(=O)OC(C)(C)C)C4)cc3)nn12 (stereo not drawn)
Response line: 6.00 to 7.00

Prompt line: For CN(c1ccccc1-c1ccc2cnc(Nc3cnn(C4CCNCC4)c3)nn12)S(C)(=O)=O , write its pIC50.
Response line: 6.00 to 7.00

Prompt line: Please give the documented pIC50 of COc1ccc(-c2ccc3cnc(Nc4cncc(C(N)=O)c4)nn23)cn1
Response line: 6.00 to 7.00

Prompt line: Give a short answer stating reported pIC50 for CN1CCN(c2ccc(Nc3ncc4ccc(-c5ccc(CN6CCS(=O)(=O)CC6)nc5)n4n3)cc2)CC1 .
Response line: 6.00 to 7.00

Prompt line: Provide only the value of recorded pIC50 for CCN1CCC(O)(c2ccc(Nc3ncc4ccc(-c5ccccc5N(C)S(C)(=O)=O)n4n3)c(OC)c2)CC1
Response line: > 7.00
